All figures here come from ChEMBL document CHEMBL5625245.

solubility values for the compounds below.
experiment: Solubility of the compound in 5% DMSO/8% Tween80/87% saline at 25 degreeC by HPLC analysis; assay type: physicochemical
Please respond with the number in µg/mL and leave the unit unwritten.

{"given smiles": "CC(C)OC(=O)[C@H](C)N[P@](=O)(OC[C@H]1O[C@@H](n2cc(F)c(=O)[nH]c2=O)C[C@@H]1OC(=O)[C@@H]1CCCN1C(=O)[C@@H](NC(=O)OC(C)(C)C)C(C)C)Oc1ccccc1", "unit tag": "µg/mL", "solubility": 5000}

Next compound, please.
solubility measured on CC(C)OC(=O)[C@H](C)N[P@](=O)(OC[C@H]1O[C@@H](n2cc(F)c(=O)[nH]c2=O)C[C@@H]1OC(=O)[C@H](C)NC(=O)OC(C)(C)C)Oc1ccccc1 = 5000
